- Target under test: CSF1R (Homo sapiens, UniProt P07333)
- Sequence (P07333 20-972): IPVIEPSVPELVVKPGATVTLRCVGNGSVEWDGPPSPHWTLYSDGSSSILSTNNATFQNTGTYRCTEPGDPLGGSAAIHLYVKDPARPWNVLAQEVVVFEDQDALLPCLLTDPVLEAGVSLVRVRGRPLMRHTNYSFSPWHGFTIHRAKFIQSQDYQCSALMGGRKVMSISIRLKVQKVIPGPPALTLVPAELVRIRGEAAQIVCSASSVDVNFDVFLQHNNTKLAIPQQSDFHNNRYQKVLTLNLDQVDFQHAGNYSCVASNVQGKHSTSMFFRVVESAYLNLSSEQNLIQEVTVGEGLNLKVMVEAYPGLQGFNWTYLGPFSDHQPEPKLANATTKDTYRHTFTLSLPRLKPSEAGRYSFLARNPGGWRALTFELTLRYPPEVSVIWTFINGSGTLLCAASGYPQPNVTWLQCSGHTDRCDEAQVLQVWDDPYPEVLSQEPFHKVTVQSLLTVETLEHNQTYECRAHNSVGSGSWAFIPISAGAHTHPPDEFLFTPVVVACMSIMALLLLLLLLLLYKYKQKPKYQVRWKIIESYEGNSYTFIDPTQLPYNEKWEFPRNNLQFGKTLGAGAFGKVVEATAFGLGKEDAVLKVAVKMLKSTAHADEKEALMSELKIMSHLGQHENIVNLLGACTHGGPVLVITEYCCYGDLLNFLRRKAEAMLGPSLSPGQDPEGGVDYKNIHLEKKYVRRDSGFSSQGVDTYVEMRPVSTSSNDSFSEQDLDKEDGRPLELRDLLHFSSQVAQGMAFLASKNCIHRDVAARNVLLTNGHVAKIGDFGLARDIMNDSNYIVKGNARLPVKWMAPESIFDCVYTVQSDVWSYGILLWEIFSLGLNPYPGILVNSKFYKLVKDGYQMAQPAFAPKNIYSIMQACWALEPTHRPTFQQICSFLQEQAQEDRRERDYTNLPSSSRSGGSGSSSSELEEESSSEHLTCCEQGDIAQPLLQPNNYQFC
- Test protocol: HEK293 CSF1R phosphorylation MSD assay
- Assay type: cell-based
- Design: expressed in transfected cells; host or cells: HEK293
- Experimental parameters: 2 h compound, human M-CSF 50 ng/mL for 5 min; read-out: HEK293 pCSF1R M-CSF MSD:IC50
Property: IC50

- COC(=O)c1cnc2c(c1)ncn2Cc1ccc2nc(N[C@@H]3CCCC[C@H]3O)sc2c1 [Example 79]: ≤ 50 nM
- O=C(O)c1cnc2c(c1)ncn2Cc1ccc2nc(N[C@@H]3CCCC[C@H]3O)sc2c1 [Example 81]: > 500 nM
- O[C@@H]1Cc2ccccc2[C@H]1Nc1nc2ccc(Cn3cnc4cc(F)cnc43)cc2s1 [Example 69]: 50 to 200 nM
- OC[C@H](Nc1nc2ccc(Cn3cnc4cccnc43)cc2s1)C1CCCCC1 [Example 64]: 200 to 500 nM
- COc1cc2ncn(Cc3ccc4nc(NCc5ccncc5)sc4c3)c2cc1OC [Example 21]: 200 to 500 nM
- O[C@@H]1Cc2ccccc2[C@H]1Nc1nc2ccc(Cn3cnc4cc(Br)cnc43)cc2o1 [Example 62]: ≤ 50 nM
- Cn1cc(-c2nccn(Cc3ccc4nc(N[C@@H]5CCCC[C@H]5O)sc4c3)c2=O)cn1 [Example 103]: 50 to 200 nM
- CS(=O)(=O)O.O[C@@H]1CCCC[C@H]1Nc1nc2ccc(Cn3cnc4cccnc43)cc2s1 [Example 3]: 50 to 200 nM
- OC[C@@H](Nc1nc2ccc(Cn3cnc4cccnc43)cc2s1)C1CCCCC1 [Example 63]: 50 to 200 nM
- COc1cc2ncn(Cc3ccc4nc(NC5CCOC5)sc4c3)c2cc1OC (racemic) [Example 25]: > 500 nM
- O[C@H]1CCCCC1Nc1nc2ccc(Cn3cnc4ccccc43)cc2s1 (stereo in doubt) [Example 7]: 50 to 200 nM
- COc1cc2ncn(Cc3ccc4nc(Nc5ccccc5O)sc4c3)c2cc1OC [Example 31]: > 500 nM
- O[C@@H]1CCCC[C@H]1Nc1nc2ccc(Cn3cnc4cc(C5CC5)cnc43)cc2s1 [Example 45]: ≤ 50 nM
- O[C@@H]1CCCC[C@H]1Nc1nc2ccc(Cn3cnc4cc(Cl)cnc43)cc2s1 [Example 55]: ≤ 50 nM
- Cn1nnc(-c2cnc3c(c2)ncn3Cc2ccc3nc(N[C@@H]4CCCC[C@H]4O)sc3c2)n1 [Example 94]: ≤ 50 nM
- O[C@@H]1CCCC[C@H]1Nc1nc2ccc(Cn3cnc4cc(-c5nn[nH]n5)cnc43)cc2s1 [Example 93]: > 500 nM
- O[C@@H]1CCCC[C@H]1Nc1nc2ccc(Cn3cnc4cc(CN5CCOCC5)cnc43)cc2s1 [Example 82]: 200 to 500 nM

Taken from patent US9938261B2.
